measured_target: hAR (Homo sapiens)
Sequence (P10275 whole entry): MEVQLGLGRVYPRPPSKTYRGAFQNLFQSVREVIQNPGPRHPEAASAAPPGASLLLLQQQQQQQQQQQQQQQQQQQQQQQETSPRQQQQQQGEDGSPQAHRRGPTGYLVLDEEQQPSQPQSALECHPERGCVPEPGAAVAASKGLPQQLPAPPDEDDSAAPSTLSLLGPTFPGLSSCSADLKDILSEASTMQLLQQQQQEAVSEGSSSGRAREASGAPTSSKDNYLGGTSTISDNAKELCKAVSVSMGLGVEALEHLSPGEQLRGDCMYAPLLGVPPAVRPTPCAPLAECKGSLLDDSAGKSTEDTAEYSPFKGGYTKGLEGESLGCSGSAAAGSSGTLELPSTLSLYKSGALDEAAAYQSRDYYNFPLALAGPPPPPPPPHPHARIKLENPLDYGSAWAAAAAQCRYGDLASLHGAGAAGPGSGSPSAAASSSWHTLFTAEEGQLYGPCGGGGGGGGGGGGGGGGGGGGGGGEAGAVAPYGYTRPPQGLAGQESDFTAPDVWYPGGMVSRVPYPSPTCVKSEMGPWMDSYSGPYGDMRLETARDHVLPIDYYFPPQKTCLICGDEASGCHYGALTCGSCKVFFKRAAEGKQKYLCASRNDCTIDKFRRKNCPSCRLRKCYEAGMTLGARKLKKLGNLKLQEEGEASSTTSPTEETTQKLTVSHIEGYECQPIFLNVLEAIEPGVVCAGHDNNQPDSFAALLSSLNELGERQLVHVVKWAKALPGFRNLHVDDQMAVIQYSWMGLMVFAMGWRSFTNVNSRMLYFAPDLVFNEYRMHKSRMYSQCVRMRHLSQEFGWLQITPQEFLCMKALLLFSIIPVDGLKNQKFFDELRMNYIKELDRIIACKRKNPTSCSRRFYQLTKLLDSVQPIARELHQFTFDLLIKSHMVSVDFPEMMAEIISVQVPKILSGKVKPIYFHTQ
protocol_text: lacZ-based
pEC50: −log10 of the molar value.
measured_attribute: pEC50

1. C[C@]12C=CC3=C4CCC(=O)C=C4CC[C@H]3[C@@H]1CC[C@@H]2O [17β-Trenbolone]: 7.89

Source of measurements: paper PMC2045123
